The origin of these recorded values is ChEMBL document CHEMBL3286172.

System: Human immunodeficiency virus 1
Assay: Antiviral activity against HIV-1 harboring NNTRI-resistant reverse transcriptase Y181C mutant infected in human MT4 cells assessed as inhibition of virus-induced cytopathic effect by MTT method
Format: functional, organism-based
Conditions: Human immunodeficiency virus 1, MT4
pEC50: −log10 of the molar value.
Decision: pEC50 >= 6 yields 1, all other cases yield -1.

O=C1Nc2ccc(Cl)cc2[C@@](C#CC2CC2)(C(F)(F)F)O1 [EFAVIRENZ]
1
CCCSc1nc(C(C)c2c(F)cccc2F)c(CC)c(=O)[nH]1 (racemic)
-1
Cc1ccnc2c1NC(=O)c1cccnc1N2C1CC1 [NEVIRAPINE]
-1
CC[C@H](C)Sc1nc([C@@H](C)c2c(F)cccc2Cl)cc(=O)[nH]1
-1

Asked: For this compound, is measured pEC50 6 or higher? CCCSc1nc(C(C)c2c(F)cccc2Cl)c(C)c(=O)[nH]1 (racemic)
Given back: 1

Asked: For this compound, is measured pEC50 6 or higher? CC[C@@H](C)Sc1nc([C@H](C)c2c(F)cccc2Cl)c(C)c(=O)[nH]1
Given back: 1

Asked: For this compound, is measured pEC50 6 or higher? CCCCSc1nc(Cc2c(F)cccc2Cl)cc(=O)[nH]1
Given back: -1
